- protocol description: Relative cell viability in HCHT screening (propidium iodide negative nuclei count)
- Assay type: cell-based
- protocol conditions: human, GI50, concentration causing 50% cell growth inhibition
property: GI50 at 2 h

{"columns": ["compound", "value observed"],
 "data": [
  ["O=C(O)CCCCC1CCSS1 (centres unmarked)", "> 2000 µM"],
  ["C=CCS[S+]([O-])CC=C (centres unmarked) [compound 25, allicin, reference compound]", "> 500 µM"]
]}

###

Quick reference: GI50 of the listed items.
- protocol description: Relative cell viability in HCHT screening (propidium iodide negative nuclei count)
- Assay type: cell-based
- protocol conditions: human, HeLa; tpre 0.5 h with inhibitor, removal, tinc 0.5 h with 1 (10 µM); read-out: GI50, concentration causing 50% cell growth inhibition
- Source text: With COCs 1 and 2 as cell-penetrating reporters, a fully automated, fluorescent microscopy image-based high-content high-throughput (HCHT)[19] inhibitor screening assay was developed. […] Hindered reporter uptake then causes decrease of fluorescence inside of cells (Fig. 3a). Automated data analysis[19] was established to extract average fluorescence intensity per cell and, at the same time, cell viability from propidium iodide negative nuclei count (Fig. 3 and S3–S6 ^†). […]

{"columns": ["compound", "GI50"],
 "data": [
  ["CCN1C(=O)C2SSC1C(=O)N2CC(=O)O (centres unmarked) [compound 4]", "> 100 µM"],
  ["CCN1C(=O)C2SSSSC1C(=O)N2CC(=O)O (centres unmarked) [compound 3]", "34 µM"],
  ["CS(=O)(=O)c1nc2ccccc2o1 [compound 11]", "138 µM"],
  ["O=C(CN1C(=O)C2SSC1C(=O)N2CCOc1ccccc1)NCC(=O)OC[C@H]1OC(O)[C@H](O)[C@@H](O)[C@@H]1O (some centres unmarked) [compound 7]", "> 100 µM"],
  ["O=C(O)CN1C(=O)C2SSC1C(=O)N2CCOc1ccccc1 (centres unmarked) [compound 5]", "10.3 µM"]
]}
